Test system: Trichophyton rubrum
protocol_notes: Antifungal activity against Trichophyton rubrum IFO 9185 assessed as growth inhibition at 37 degC for 48 hr
Assay type: functional
stated_conditions: IFO 9185, 48 h
Readings of MBC for the listed compounds
Give just the number in µg/mL; leave the unit off.

Examples with answers:
1. COc1ccc(Cc2ccc(OC)c(C3SC4C(=NN(Cc5ccccc5)C4c4ccc(F)cc4)N3c3ccc(C)cc3)c2)cc1C1SC2C(=NN(Cc3ccccc3)C2c2ccc(F)cc2)N1c1ccc(C)cc1 (stereo not given); 25
2. COc1ccc(Cc2ccc(OC)c(C3SC4C(=NN(c5ccccc5)C4c4ccc(F)cc4)N3c3ccc(Cl)cc3)c2)cc1C1SC2C(=NN(c3ccccc3)C2c2ccc(F)cc2)N1c1ccc(Cl)cc1 (stereo not given); 12.5
3. COc1ccc(N2N=C3C(SC(c4cc(Cc5ccc(OC)c(C6SC7C(=NN(c8ccc(OC)cc8)C7c7ccc(F)cc7)N6c6ccc(C)cc6)c5)ccc4OC)N3c3ccc(C)cc3)C2c2ccc(F)cc2)cc1 (stereo not given); 12.5
4. COc1ccc(Cc2ccc(OC)c(C3SC4C(=NN(C)C4c4ccc(F)cc4)N3c3ccc(C)cc3)c2)cc1C1SC2C(=NN(C)C2c2ccc(F)cc2)N1c1ccc(C)cc1 (stereo not given); 6.25

Next compound, please.
Query string: Request body: readout MBC, system Trichophyton rubrum, query COc1ccc(N2N=C3C(SC(c4cc(Cc5ccc(OC)c(C6SC7C(=NN(c8ccc(OC)cc8)C7c7ccc(F)cc7)N6c6ccc([N+](=O)[O-])cc6)c5)ccc4OC)N3c3ccc([N+](=O)[O-])cc3)C2c2ccc(F)cc2)cc1 (stereo not given) . Return the value.
Result string: 25

---

Readings of MIC for the listed compounds
Test system: Trichophyton rubrum
protocol_notes: Antifungal activity against Trichophyton rubrum IFO 9185 assessed as growth inhibition at 37 degC for 48 hr
Type: functional
stated_conditions: IFO 9185, 48 h
Kindly report the value followed by its unit.

1. COc1ccc(Cc2ccc(OC)c(C3SC4C(=NN(c5ccccc5)C4c4ccc(F)cc4)N3c3ccc([N+](=O)[O-])cc3)c2)cc1C1SC2C(=NN(c3ccccc3)C2c2ccc(F)cc2)N1c1ccc([N+](=O)[O-])cc1 (stereo unspecified); 6.25 µg/mL
2. COc1ccc(Cc2ccc(OC)c(C3SC4C(=NN(c5ccccc5)C4c4ccc(F)cc4)N3c3ccc(C)cc3)c2)cc1C1SC2C(=NN(c3ccccc3)C2c2ccc(F)cc2)N1c1ccc(C)cc1 (stereo unspecified); 25 µg/mL
3. COc1ccc(N2N=C3C(SC(c4cc(Cc5ccc(OC)c(C6SC7C(=NN(c8ccc(OC)cc8)C7c7ccc(F)cc7)N6c6ccc(C)cc6)c5)ccc4OC)N3c3ccc(C)cc3)C2c2ccc(F)cc2)cc1 (stereo unspecified); 12.5 µg/mL
4. C[C@@H]1[C@H](O)[C@@H](C)/C=C/C=C/C=C/C=C/C=C/C=C/C=C/[C@H](O[C@@H]2O[C@H](C)[C@@H](O)[C@H](N)[C@@H]2O)C[C@@H]2O[C@](O)(C[C@@H](O)C[C@@H](O)[C@H](O)CC[C@@H](O)C[C@@H](O)CC(=O)O[C@H]1C)C[C@H](O)[C@H]2C(=O)O; 3.12 µg/mL
5. COc1ccc(Cc2ccc(OC)c(C3SC4C(=NN(c5ccccc5)C4c4ccc(F)cc4)N3c3ccc(Cl)cc3)c2)cc1C1SC2C(=NN(c3ccccc3)C2c2ccc(F)cc2)N1c1ccc(Cl)cc1 (stereo unspecified); 12.5 µg/mL

Query string: What does the record list as MIC for COc1ccc(Cc2ccc(OC)c(C3SC4C(=NN(C)C4c4ccc(F)cc4)N3c3ccc([N+](=O)[O-])cc3)c2)cc1C1SC2C(=NN(C)C2c2ccc(F)cc2)N1c1ccc([N+](=O)[O-])cc1 (stereo unspecified) ?
Result string: 12.5 µg/mL

Query string: What does the record list as MIC for COc1ccc(Cc2ccc(OC)c(C3SC4C(=NN(Cc5ccccc5)C4c4ccc(F)cc4)N3c3ccc(Cl)cc3)c2)cc1C1SC2C(=NN(Cc3ccccc3)C2c2ccc(F)cc2)N1c1ccc(Cl)cc1 (stereo unspecified) ?
Result string: 6.25 µg/mL

Query string: What does the record list as MIC for COc1ccc(Cc2ccc(OC)c(C3SC4C(=NN(c5ccc(Cl)cc5)C4c4ccc(F)cc4)N3c3ccc(Cl)cc3)c2)cc1C1SC2C(=NN(c3ccc(Cl)cc3)C2c2ccc(F)cc2)N1c1ccc(Cl)cc1 (stereo unspecified) ?
Result string: 12.5 µg/mL

Query string: What does the record list as MIC for COc1ccc(N2N=C3C(SC(c4cc(Cc5ccc(OC)c(C6SC7C(=NN(c8ccc(OC)cc8)C7c7ccc(F)cc7)N6c6ccc(Cl)cc6)c5)ccc4OC)N3c3ccc(Cl)cc3)C2c2ccc(F)cc2)cc1 (stereo unspecified) ?
Result string: 25 µg/mL

Query string: What does the record list as MIC for COc1ccc(Cc2ccc(OC)c(C3SC4C(=NN(C)C4c4ccc(F)cc4)N3c3ccc(C)cc3)c2)cc1C1SC2C(=NN(C)C2c2ccc(F)cc2)N1c1ccc(C)cc1 (stereo unspecified) ?
Result string: 3.12 µg/mL

Query string: What does the record list as MIC for COc1ccc(Cc2ccc(OC)c(C3SC4C(=NN(C(C)C)C4c4ccc(F)cc4)N3c3ccc([N+](=O)[O-])cc3)c2)cc1C1SC2C(=NN(C(C)C)C2c2ccc(F)cc2)N1c1ccc([N+](=O)[O-])cc1 (stereo unspecified) ?
Result string: 12.5 µg/mL

---

Readings of zone of inhibition at 300 µg/disc for the listed compounds
System: Staphylococcus aureus
protocol_notes: Antibacterial activity against Staphylococcus aureus MTCC 96 assessed as inhibition zones at 300 ug/disc at 37 degC for 24 hr
Type: functional
stated_conditions: MTCC 96, 24 h, read-out: IZ
Give just the number in mm; leave the unit off.

1. COc1ccc(Cc2ccc(OC)c(C3SC4C(=NN(c5ccccc5)C4c4ccc(F)cc4)N3c3ccc(Cl)cc3)c2)cc1C1SC2C(=NN(c3ccccc3)C2c2ccc(F)cc2)N1c1ccc(Cl)cc1 (stereo not drawn); 20

Query string: What does the record list as zone of inhibition at 300 µg/disc for COc1ccc(Cc2ccc(OC)c(C3SC4C(=NN(Cc5ccccc5)C4c4ccc(F)cc4)N3c3ccc(Cl)cc3)c2)cc1C1SC2C(=NN(Cc3ccccc3)C2c2ccc(F)cc2)N1c1ccc(Cl)cc1 (stereo not drawn) ?
Result string: 30

Query string: What does the record list as zone of inhibition at 300 µg/disc for COc1ccc(Cc2ccc(OC)c(C3SC4C(=NN(C)C4c4ccc(F)cc4)N3c3ccc(C)cc3)c2)cc1C1SC2C(=NN(C)C2c2ccc(F)cc2)N1c1ccc(C)cc1 (stereo not drawn) ?
Result string: 25

Query string: What does the record list as zone of inhibition at 300 µg/disc for COc1ccc(Cc2ccc(OC)c(C3SC4C(=NN(c5ccc(Cl)cc5)C4c4ccc(F)cc4)N3c3ccc([N+](=O)[O-])cc3)c2)cc1C1SC2C(=NN(c3ccc(Cl)cc3)C2c2ccc(F)cc2)N1c1ccc([N+](=O)[O-])cc1 (stereo not drawn) ?
Result string: 16

Query string: What does the record list as zone of inhibition at 300 µg/disc for COc1ccc(N2N=C3C(SC(c4cc(Cc5ccc(OC)c(C6SC7C(=NN(c8ccc(OC)cc8)C7c7ccc(F)cc7)N6c6ccc(Cl)cc6)c5)ccc4OC)N3c3ccc(Cl)cc3)C2c2ccc(F)cc2)cc1 (stereo not drawn) ?
Result string: 28

Query string: What does the record list as zone of inhibition at 300 µg/disc for COc1ccc(Cc2ccc(OC)c(C3SC4C(=NN(c5ccc(Cl)cc5)C4c4ccc(F)cc4)N3c3ccc(Cl)cc3)c2)cc1C1SC2C(=NN(c3ccc(Cl)cc3)C2c2ccc(F)cc2)N1c1ccc(Cl)cc1 (stereo not drawn) ?
Result string: 22

Query string: What does the record list as zone of inhibition at 300 µg/disc for COc1ccc(Cc2ccc(OC)c(C3SC4C(=NN(C)C4c4ccc(F)cc4)N3c3ccc([N+](=O)[O-])cc3)c2)cc1C1SC2C(=NN(C)C2c2ccc(F)cc2)N1c1ccc([N+](=O)[O-])cc1 (stereo not drawn) ?
Result string: 21

Query string: What does the record list as zone of inhibition at 300 µg/disc for COc1ccc(N2N=C3C(SC(c4cc(Cc5ccc(OC)c(C6SC7C(=NN(c8ccc(OC)cc8)C7c7ccc(F)cc7)N6c6ccc([N+](=O)[O-])cc6)c5)ccc4OC)N3c3ccc([N+](=O)[O-])cc3)C2c2ccc(F)cc2)cc1 (stereo not drawn) ?
Result string: 21

---

Readings of MIC for the listed molecules
System: Trichophyton rubrum
protocol_notes: Antifungal activity against Trichophyton rubrum IFO 9185 assessed as growth inhibition at 37 degC for 48 hr
Type: functional
stated_conditions: IFO 9185, 48 h
Kindly report the value followed by its unit.

Examples with answers:
1) COc1ccc(Cc2ccc(OC)c(C3SC4C(=NN(Cc5ccccc5)C4c4ccc(F)cc4)N3c3ccc(C)cc3)c2)cc1C1SC2C(=NN(Cc3ccccc3)C2c2ccc(F)cc2)N1c1ccc(C)cc1 (stereo not given); 12.5 µg/mL
2) COc1ccc(Cc2ccc(OC)c(C3SC4C(=NN(c5ccc(Cl)cc5)C4c4ccc(F)cc4)N3c3ccc(C)cc3)c2)cc1C1SC2C(=NN(c3ccc(Cl)cc3)C2c2ccc(F)cc2)N1c1ccc(C)cc1 (stereo not given); 6.25 µg/mL
3) COc1ccc(Cc2ccc(OC)c(C3SC4C(=NN(C)C4c4ccc(F)cc4)N3c3ccc(Cl)cc3)c2)cc1C1SC2C(=NN(C)C2c2ccc(F)cc2)N1c1ccc(Cl)cc1 (stereo not given); 6.25 µg/mL
4) COc1ccc(N2N=C3C(SC(c4cc(Cc5ccc(OC)c(C6SC7C(=NN(c8ccc(OC)cc8)C7c7ccc(F)cc7)N6c6ccc([N+](=O)[O-])cc6)c5)ccc4OC)N3c3ccc([N+](=O)[O-])cc3)C2c2ccc(F)cc2)cc1 (stereo not given); 12.5 µg/mL

Next molecule, please.
Query string: What does the record list as MIC for COc1ccc(Cc2ccc(OC)c(C3SC4C(=NN(c5ccc(Cl)cc5)C4c4ccc(F)cc4)N3c3ccc([N+](=O)[O-])cc3)c2)cc1C1SC2C(=NN(c3ccc(Cl)cc3)C2c2ccc(F)cc2)N1c1ccc([N+](=O)[O-])cc1 (stereo not given) ?
Result string: 25 µg/mL

Sourced from ChEMBL document CHEMBL3045223
